Value source: patent US20240239886A1

- target_desc: T1, recombinant protein consisting of the extracellular domain of human TREM2 fused to the His tag (human, UniProt Q9NZC2 19-174)
- T1 construct: also called His tagged hTREM2; His-TREM2
- T1 sequence: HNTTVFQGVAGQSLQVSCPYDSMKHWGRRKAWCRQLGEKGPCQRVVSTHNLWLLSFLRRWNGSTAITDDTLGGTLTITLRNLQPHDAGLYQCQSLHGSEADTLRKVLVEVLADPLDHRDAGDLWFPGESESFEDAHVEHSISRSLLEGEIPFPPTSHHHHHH
- assay_text: direct ELISA, coated His-TREM2 0.5 ug/mL, Ab stock 1 mg/mL
property_label: OD at dilution 1000 (OD)
Kindly provide the numeric value in OD only, without the unit symbol.

[
  {
    "binder": "83E10B12 (antibody, V domains shown, Biotin conjugated in sup ELISA, cell-based ELISA and flow cytometry) VH: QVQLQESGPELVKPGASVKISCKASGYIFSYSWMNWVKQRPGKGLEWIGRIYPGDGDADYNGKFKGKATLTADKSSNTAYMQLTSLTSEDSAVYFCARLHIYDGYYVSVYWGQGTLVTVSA VL: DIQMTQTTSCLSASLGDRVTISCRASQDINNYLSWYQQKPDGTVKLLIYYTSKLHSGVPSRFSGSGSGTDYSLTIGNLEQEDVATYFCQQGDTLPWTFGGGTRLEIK",
    "OD at dilution 1000 / OD": 2.59
  },
  {
    "binder": "60H4A3 (antibody, V domains shown, Biotin conjugated in sup ELISA, cell-based ELISA and flow cytometry) VH: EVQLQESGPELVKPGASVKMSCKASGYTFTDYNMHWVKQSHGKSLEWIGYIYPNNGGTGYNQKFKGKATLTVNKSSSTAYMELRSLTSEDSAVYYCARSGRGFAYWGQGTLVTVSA VL: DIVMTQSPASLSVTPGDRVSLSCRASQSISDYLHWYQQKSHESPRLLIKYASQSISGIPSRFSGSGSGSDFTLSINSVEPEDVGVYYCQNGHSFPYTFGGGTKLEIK",
    "OD at dilution 1000 / OD": 1.84
  },
  {
    "binder": "61B11C9 (antibody, V domains shown, Biotin conjugated in sup ELISA, cell-based ELISA and flow cytometry) VH: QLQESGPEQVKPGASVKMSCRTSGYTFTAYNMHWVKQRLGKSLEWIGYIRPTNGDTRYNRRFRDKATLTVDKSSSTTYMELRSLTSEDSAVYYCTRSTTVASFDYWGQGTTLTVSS VL: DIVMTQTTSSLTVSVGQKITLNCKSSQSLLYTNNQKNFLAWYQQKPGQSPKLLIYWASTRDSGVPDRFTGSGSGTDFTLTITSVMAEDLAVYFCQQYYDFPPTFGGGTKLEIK",
    "OD at dilution 1000 / OD": 2.75
  }
]

// lookup OD at dilution 1000 for 80E3C7 (antibody, V domains shown, Biotin conjugated in sup ELISA, cell-based ELISA and flow cytometry; also called anti-TREM2 antibody (E3C7); TREM2 Ab E3C7) VH: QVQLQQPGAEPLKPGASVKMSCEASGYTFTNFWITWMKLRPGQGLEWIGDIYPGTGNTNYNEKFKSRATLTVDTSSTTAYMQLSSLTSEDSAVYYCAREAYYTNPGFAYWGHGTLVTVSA VL: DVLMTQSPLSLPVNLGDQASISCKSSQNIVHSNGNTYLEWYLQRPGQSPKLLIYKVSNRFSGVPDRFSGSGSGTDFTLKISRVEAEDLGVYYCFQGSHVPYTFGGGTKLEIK 2.02

Look up OD at dilution 1000 for this binder: 54H2C1 (antibody, V domains shown, Biotin conjugated in sup ELISA, cell-based ELISA and flow cytometry) VH: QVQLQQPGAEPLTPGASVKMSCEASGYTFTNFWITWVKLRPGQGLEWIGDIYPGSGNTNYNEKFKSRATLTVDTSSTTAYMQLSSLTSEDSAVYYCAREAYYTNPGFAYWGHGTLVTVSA VL: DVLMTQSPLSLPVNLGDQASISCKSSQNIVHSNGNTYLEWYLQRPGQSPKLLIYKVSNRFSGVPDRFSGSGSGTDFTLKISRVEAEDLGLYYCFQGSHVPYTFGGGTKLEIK 1.4

So what does the record say about OD at dilution 1000 for 60H4G2 (antibody, V domains shown, Biotin conjugated in sup ELISA, cell-based ELISA and flow cytometry) VH: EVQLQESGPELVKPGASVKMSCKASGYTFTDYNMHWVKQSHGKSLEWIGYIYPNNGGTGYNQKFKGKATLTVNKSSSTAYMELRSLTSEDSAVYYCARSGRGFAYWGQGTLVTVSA VL: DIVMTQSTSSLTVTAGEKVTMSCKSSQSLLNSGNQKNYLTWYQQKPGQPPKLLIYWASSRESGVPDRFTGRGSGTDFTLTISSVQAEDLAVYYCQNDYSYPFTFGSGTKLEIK ? 1.83
